Provenance of the data: patent US20260271925A1

Test system: S. aureus 29213 (MSSA)
Experiment: Minimum inhibitory concentration by broth microdilution (Example 2)
Type: cell-based, Staphylococcus aureus
Conditions: antibiotic + 1 mM D-Lactic acid
Endpoint: MIC + 1 mM D-Lactic acid
Answer as a number with no unit attached.

Supply MIC + 1 mM D-Lactic acid value. Item: CO/N=C(\C(=O)N[C@@H]1C(=O)N2C(C(=O)O)=C(CSc3nc(=O)c(=O)[nH]n3C)CS[C@H]12)c1csc(N)n1 [ceftriaxone]
4.0

Note MIC + 1 mM D-Lactic acid for the molecule shown: C[C@@H](O)[C@H]1C(=O)N2C(C(=O)O)=C(S[C@@H]3CN[C@H](C(=O)N(C)C)C3)[C@H](C)[C@H]12 [meropenem]
0.5

In one line, give reported MIC + 1 mM D-Lactic acid of the entry COc1cccc(OC)c1C(=O)N[C@@H]1C(=O)N2[C@@H]1SC(C)(C)[C@@H]2C(=O)O [methicillin] .
0.5

Annotate the molecule CN[C@H](CC(C)C)C(=O)N[C@H]1C(=O)N[C@@H](CC(N)=O)C(=O)N[C@H]2C(=O)N[C@H]3C(=O)N[C@H](C(=O)N[C@H](C(=O)O)c4cc(O)cc(O)c4-c4cc3ccc4O)[C@H](O)c3ccc(c(Cl)c3)Oc3cc2cc(c3O[C@@H]2O[C@H](CO)[C@@H](O)[C@H](O)[C@H]2O[C@H]2C[C@](C)(N)[C@H](O)[C@H](C)O2)Oc2ccc(cc2Cl)[C@H]1O [vancomycin] with its measured MIC + 1 mM D-Lactic acid.
4.0

* * *

System: S. aureus 510 (MRSA)
Assay: Minimum inhibitory concentration by broth microdilution (Example 2)
Format: cell-based, Staphylococcus aureus
Details: antibiotic + 10 mM D-Lactic acid, unit assumed
Procedure: Bacterial strains were maintained as suspensions in 20% (v/v) glycerol/Brain-Heart Infusion at −80° C. A standard inoculum was prepared from broth culture. The broth culture was diluted in broth to a turbidity equal to a 0.5 McFarland Standard using a spectrophotometer at a wavelength of 620 nm. The 0.5 McFarland Standard was further diluted 1:100 in broth to create the standard inoculum. […]
Endpoint: MIC + 10 mM D-Lactic acid (µg/mL)
Write the number in µg/mL without appending the unit.

For the compound COc1cccc(OC)c1C(=O)N[C@@H]1C(=O)N2[C@@H]1SC(C)(C)[C@@H]2C(=O)O [methicillin] , give its measured MIC + 10 mM D-Lactic acid value.
2

// Input: CO/N=C(\C(=O)N[C@@H]1C(=O)N2C(C(=O)O)=C(CSc3nc(=O)c(=O)[nH]n3C)CS[C@H]12)c1csc(N)n1 [ceftriaxone] . Output its MIC + 10 mM D-Lactic acid only.
8

Note MIC + 10 mM D-Lactic acid for the compound shown: CN[C@H](CC(C)C)C(=O)N[C@H]1C(=O)N[C@@H](CC(N)=O)C(=O)N[C@H]2C(=O)N[C@H]3C(=O)N[C@H](C(=O)N[C@H](C(=O)O)c4cc(O)cc(O)c4-c4cc3ccc4O)[C@H](O)c3ccc(c(Cl)c3)Oc3cc2cc(c3O[C@@H]2O[C@H](CO)[C@@H](O)[C@H](O)[C@H]2O[C@H]2C[C@](C)(N)[C@H](O)[C@H](C)O2)Oc2ccc(cc2Cl)[C@H]1O [vancomycin]
2

* * *

Can you tell me MIC + 10 mM D-Lactic acid for the items I'm about to list?
System: S. aureus 510 (MRSA)
Assay: Minimum inhibitory concentration by broth microdilution (Example 2)
Format: cell-based, Staphylococcus aureus
Details: antibiotic + 10 mM D-Lactic acid, unit assumed
Dear colleague, please return just the value in µg/mL, with no unit written.

Fill in reported MIC + 10 mM D-Lactic acid for this entry: C[C@@H](O)[C@H]1C(=O)N2C(C(=O)O)=C(S[C@@H]3CN[C@H](C(=O)N(C)C)C3)[C@H](C)[C@H]12 [meropenem]
2

Note MIC + 10 mM D-Lactic acid for the compound shown: CO[C@H]1/C=C/O[C@@]2(C)Oc3c(C)c(O)c4c(O)c(c(/C=N/N5CCN(C)CC5)c(O)c4c3C2=O)NC(=O)/C(C)=C\C=C\[C@H](C)[C@H](O)[C@@H](C)[C@@H](O)[C@@H](C)[C@H](OC(C)=O)[C@@H]1C [rifampicin]
0.008
